target: LYN (Homo sapiens, UniProt P07948)
Sequence (P07948 whole entry): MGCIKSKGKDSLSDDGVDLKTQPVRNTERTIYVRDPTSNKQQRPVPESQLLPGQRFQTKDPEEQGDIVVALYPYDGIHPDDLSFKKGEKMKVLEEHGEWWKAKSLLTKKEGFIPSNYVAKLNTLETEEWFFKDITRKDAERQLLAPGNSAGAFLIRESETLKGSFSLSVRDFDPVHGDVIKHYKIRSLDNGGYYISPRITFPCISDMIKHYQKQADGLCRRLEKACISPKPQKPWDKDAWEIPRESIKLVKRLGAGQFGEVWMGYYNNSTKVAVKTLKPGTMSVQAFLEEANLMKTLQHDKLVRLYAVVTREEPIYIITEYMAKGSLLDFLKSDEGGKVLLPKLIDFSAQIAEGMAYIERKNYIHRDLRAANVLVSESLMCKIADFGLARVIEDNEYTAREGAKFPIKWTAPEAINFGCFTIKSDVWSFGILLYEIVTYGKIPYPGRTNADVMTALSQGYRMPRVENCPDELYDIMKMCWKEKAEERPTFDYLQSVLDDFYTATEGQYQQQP
OBSERVATION_TYPE: pKi
Give bare numbers, as −log10 of the molar value.

query: Using the record for Cc1cc(/C=C/C#N)cc(C)c1Nc1ccnc(Nc2ccc(C#N)cc2)n1 [rilpivirine] , report its pKi.
result: 6.03

----------
test: Pharmacokinetic analysis in mice; type: in vivo, mouse; conditions: IV, 2 mg/kg single dose, 2 mg/kg
OBSERVATION_TYPE: Cmax

query: Could you tell me which Cmax is on file for Cc1cc(/C=C/C#N)cc(C)c1Nc1ccnc(Nc2ccc(C#N)cc2)n1 ?
result: > 20 µM

----------
assay: Pharmacokinetic analysis in mice; format: in vivo, mouse; details: male, BALB/c hairy, mouse, plasma, IV, 2 mg/kg single dose
OBSERVATION_TYPE: Tmax

query: Query: Tmax; subject: Cc1cc(/C=C/C#N)cc(C)c1Nc1ccnc(Nc2ccc(C#N)cc2)n1
result: 1.98 min
